test system: panel of 55 breast cancer cell lines; assay: Cell growth inhibition assay (Cell Titer Glo, 72 h, 9 doses; GI50, TGI, LC50); type: cell-based, human; details: BT474 cell line; censored GI50 values; value is the negative log10 of mol/L
Bucketed by reported GI50, buckets being zone 1: < 5; zone 2: ≥ 5 and < 6; zone 3: ≥ 6

Example results:
>  <molecule>
NS(=O)(=O)c1ccc(Nc2nc(OCC3CCCCC3)c3[nH]cnc3n2)cc1 [NU6102]

>  <experimental system>
panel of 55 breast cancer cell lines

>  <class label>
zone 1

$$$$
>  <molecule>
C=CCNC1=C2C[C@@H](C)C[C@H](OC)[C@H](O)[C@@H](C)/C=C(\C)[C@H](OC(N)=O)[C@@H](OC)/C=C\C=C(/C)C(=O)NC(=CC1=O)C2=O [17-AAG]

>  <experimental system>
panel of 55 breast cancer cell lines

>  <class label>
zone 3

$$$$

// return the class label for N#Cc1c(NC(=O)c2cccc3ccccc23)sc2c1CCCC2 [TCS JNK 5a]
zone 1

// return the class label for O=C1C(Cl)=C(NCCN2CCOCC2)C(=O)c2ncccc21 [NSC 663284]
zone 2

// return the class label for N.N.O=C([O-])C1(C(=O)[O-])CCC1.[Pt+2] [Carboplatin]
zone 1

// return the class label for Cc1cc(C(=O)N2CCN(c3cccc(Cl)c3)CC2)n(-c2ccccc2)n1 [XRP44X]
zone 2

---

tested on: panel of 55 breast cancer cell lines; experiment: Cell growth inhibition assay (Cell Titer Glo, 72 h, 9 doses; GI50, TGI, LC50); format: cell-based, human; conditions: MDAMB415 cell line; censored GI50 values; value is the negative log10 of mol/L
experimental endpoint: GI50
Hey, just send me the number, nothing else.

Recorded GI50, per entry:
>  <structure notation>
O=c1[nH]c2ccccc2n1C1CCN(Cc2ccc(-c3nc4cc5[nH]cnc5cc4nc3-c3ccccc3)cc2)CC1

>  <GI50>
4.95

$$$$
>  <structure notation>
CC(/C=C/C(=O)NO)=C\[C@@H](C)C(=O)c1ccc(N(C)C)cc1

>  <GI50>
4.90

$$$$

Per the record, "Cc1cc(Nc2cc(N3CCN(C)CC3)nc(Sc3ccc(NC(=O)C4CC4)cc3)n2)n[nH]1" has GI50 of 4.86

---

GI50 listing for selected compounds.
test system: panel of 55 breast cancer cell lines; experiment: Cell growth inhibition assay (Cell Titer Glo, 72 h, 9 doses; GI50, TGI, LC50); format: cell-based, human; conditions: cell line SUM52PE; value is the negative log10 of mol/L
Hey, just send me the number, nothing else.

Recorded GI50, per entry:
>  <structure notation>
CCn1cc(-c2ccnc3[nH]c(-c4cccc(CN(C)C)c4)cc23)c(-c2ccc(NC(=O)N(C)C)cc2)n1

>  <GI50>
6.84

$$$$
>  <structure notation>
COc1cccc(-c2cc(=O)c3ccccc3o2)c1N

>  <GI50>
4.92

$$$$

// below: GI50 requested for another compound
Per the record, "O=C1C(Cl)=C(NCCN2CCOCC2)C(=O)c2ncccc21" has GI50 of 5.61

---

GI50 listing for selected compounds.
system: panel of 55 breast cancer cell lines; test: Cell growth inhibition assay (Cell Titer Glo, 72 h, 9 doses; GI50, TGI, LC50); assay type: cell-based, human; details: MDAMB453 cell line; censored GI50 values; value is the negative log10 of mol/L
Hey, just send me the number, nothing else.

>  <compound>
Cc1cc(C(C)Nc2ccccc2)c2nc(N3CCOCC3)cc(=O)n2c1 (stereo not shown) [TGX-221]

>  <experimental endpoint>
GI50

>  <measured>
4.81

$$$$
>  <compound>
CCn1cc(-c2ccnc3[nH]c(-c4cccc(CN(C)C)c4)cc23)c(-c2ccc(NC(=O)N(C)C)cc2)n1 [GSK1070916]

>  <experimental endpoint>
GI50

>  <measured>
5.51

$$$$
>  <compound>
O=C1NC(=O)/C(=C/c2ccc(-c3ccc(F)cc3O)o2)S1 [AS-252424]

>  <experimental endpoint>
GI50

>  <measured>
4.69

$$$$

// below: GI50 requested for another compound
Per the record, Cc1cc(Nc2cc(N3CCN(C)CC3)nc(Sc3ccc(NC(=O)C4CC4)cc3)n2)n[nH]1 [VX-680] has GI50 of 5.03

---

system: panel of 55 breast cancer cell lines; experiment: Cell growth inhibition assay (Cell Titer Glo, 72 h, 9 doses; GI50, TGI, LC50); format: cell-based, human; conditions: cell line HCC1428; value is the negative log10 of mol/L
GI50 listing for selected compounds.
Hey, just send me the number, nothing else.

>  <structure notation>
O=c1[nH]c(=O)n([C@H]2C[C@H](O)[C@@H](CO)O2)cc1F

>  <measured>
4.99

$$$$
>  <structure notation>
COc1cc2c(Nc3ccc(NC(=O)c4ccccc4)cc3)ncnc2cc1OCCCN1CCOCC1

>  <measured>
5.13

$$$$
>  <structure notation>
CC(C)(C)c1cc(C=C(C#N)C#N)cc(Br)c1O

>  <measured>
5.05

$$$$

Per the record, "NS(=O)(=O)c1ccc(Nc2nc(OCC3CCCCC3)c3[nH]cnc3n2)cc1" has GI50 of 4.87

Per the record, "Cc1cc(Nc2cc(N3CCN(C)CC3)nc(Sc3ccc(NC(=O)C4CC4)cc3)n2)n[nH]1" has GI50 of 5.10

---

tested on: panel of 55 breast cancer cell lines; experiment: Cell growth inhibition assay (Cell Titer Glo, 72 h, 9 doses; GI50, TGI, LC50); assay type: cell-based, human; settings: Homo sapiens, HCC1428, cell line HCC1428; read-out: GI50 (converted)
Labelling field: enter Fulfilled if recorded GI50 is less than 50 µM. Enter Not fulfilled if it equals or exceeds that cut-off.

Example results:
>  <compound>
COc1cc([C@@H]2c3cc4c(cc3[C@@H](O[C@@H]3O[C@@H]5CO[C@@H](C)O[C@H]5[C@H](O)[C@H]3O)[C@H]3COC(=O)[C@H]23)OCO4)cc(OC)c1O [Etoposide]

>  <experimental system>
panel of 55 breast cancer cell lines

>  <class label>
Fulfilled

$$$$
>  <compound>
NS(=O)(=O)OC[C@@H]1C[C@@H](n2ccc3c(N[C@H]4CCc5ccccc54)ncnc32)C[C@@H]1O

>  <experimental system>
panel of 55 breast cancer cell lines

>  <class label>
Fulfilled

$$$$
>  <compound>
CN(Cc1cnc2nc(N)nc(N)c2n1)c1ccc(C(=O)N[C@@H](CCC(=O)O)C(=O)O)cc1 [Methotrexate]

>  <experimental system>
panel of 55 breast cancer cell lines

>  <class label>
Not fulfilled

$$$$
>  <compound>
CC(C)C[C@H](NC(=O)[C@H](Cc1ccccc1)NC(=O)c1cnccn1)B(O)O

>  <experimental system>
panel of 55 breast cancer cell lines

>  <class label>
Fulfilled

$$$$

Moving on to the next compound.
Hi there! Is GI50 for "Cn1c(=O)n(-c2ccc(C(C)(C)C#N)cc2)c2c3cc(-c4cnc5ccccc5c4)ccc3ncc21" below 50 µM, do you know?
Fulfilled

---

GI50 listing for selected compounds.
system: panel of 55 breast cancer cell lines; test: Cell growth inhibition assay (Cell Titer Glo, 72 h, 9 doses; GI50, TGI, LC50); format: cell-based, human; details: Homo sapiens, ZR-75B, cell line ZR75B; read-out: GI50 (converted)
Value expressed in nM; do not type the unit.

>  <compound>
CN(C)C/C=C/C(=O)Nc1cc2c(Nc3ccc(F)c(Cl)c3)ncnc2cc1O[C@H]1CCOC1

>  <units text>
nM

>  <GI50>
3020

$$$$
>  <compound>
CC(=O)O[C@H]1C(=O)[C@@]2(C)[C@H]([C@H](OC(=O)c3ccccc3)[C@]3(O)C[C@H](OC(=O)[C@H](O)[C@@H](NC(=O)c4ccccc4)c4ccccc4)C(C)=C1C3(C)C)[C@]1(OC(C)=O)CO[C@@H]1C[C@@H]2O

>  <units text>
nM

>  <GI50>
7.94

$$$$
>  <compound>
COc1cc2ncnc(Nc3ccc(F)c(Cl)c3)c2cc1OCCCN1CCOCC1

>  <units text>
nM

>  <GI50>
21400

$$$$
>  <compound>
COc1cc([C@@H]2c3cc4c(cc3[C@@H](O[C@@H]3O[C@@H]5CO[C@@H](C)O[C@H]5[C@H](O)[C@H]3O)[C@H]3COC(=O)[C@H]23)OCO4)cc(OC)c1O [Etoposide]

>  <units text>
nM

>  <GI50>
871

$$$$
>  <compound>
CC[C@@]1(O)C(=O)OCc2c1cc1n(c2=O)Cc2cc3c(CN(C)C)c(O)ccc3nc2-1

>  <units text>
nM

>  <GI50>
63.1

$$$$
>  <compound>
CC(C)C[C@H](NC(=O)[C@H](Cc1ccccc1)NC(=O)c1cnccn1)B(O)O

>  <units text>
nM

>  <GI50>
132

$$$$
>  <compound>
O=C1c2ccccc2-[n+]2ccc3c([nH]c4ccccc43)c21

>  <units text>
nM

>  <GI50>
407

$$$$
>  <compound>
COc1cccc2c1C(=O)c1c(O)c3c(c(O)c1C2=O)C[C@@](O)(C(=O)CO)C[C@@H]3O[C@H]1C[C@H](N)[C@@H](O)[C@H](C)O1 [Epirubicin]

>  <units text>
nM

>  <GI50>
115

$$$$

Recorded GI50 for CN(Cc1cnc2nc(N)nc(N)c2n1)c1ccc(C(=O)N[C@@H](CCC(=O)O)C(=O)O)cc1 [Methotrexate] on panel of 55 breast cancer cell lines was 331000
